These data points were gathered from patent US20150087627A1.

# testedOn: PI3K γ (p110γ) (Homo sapiens, UniProt P48736)
# Construct: purchased Upstate / Millipore Corporation
# Sequence (P48736 whole entry): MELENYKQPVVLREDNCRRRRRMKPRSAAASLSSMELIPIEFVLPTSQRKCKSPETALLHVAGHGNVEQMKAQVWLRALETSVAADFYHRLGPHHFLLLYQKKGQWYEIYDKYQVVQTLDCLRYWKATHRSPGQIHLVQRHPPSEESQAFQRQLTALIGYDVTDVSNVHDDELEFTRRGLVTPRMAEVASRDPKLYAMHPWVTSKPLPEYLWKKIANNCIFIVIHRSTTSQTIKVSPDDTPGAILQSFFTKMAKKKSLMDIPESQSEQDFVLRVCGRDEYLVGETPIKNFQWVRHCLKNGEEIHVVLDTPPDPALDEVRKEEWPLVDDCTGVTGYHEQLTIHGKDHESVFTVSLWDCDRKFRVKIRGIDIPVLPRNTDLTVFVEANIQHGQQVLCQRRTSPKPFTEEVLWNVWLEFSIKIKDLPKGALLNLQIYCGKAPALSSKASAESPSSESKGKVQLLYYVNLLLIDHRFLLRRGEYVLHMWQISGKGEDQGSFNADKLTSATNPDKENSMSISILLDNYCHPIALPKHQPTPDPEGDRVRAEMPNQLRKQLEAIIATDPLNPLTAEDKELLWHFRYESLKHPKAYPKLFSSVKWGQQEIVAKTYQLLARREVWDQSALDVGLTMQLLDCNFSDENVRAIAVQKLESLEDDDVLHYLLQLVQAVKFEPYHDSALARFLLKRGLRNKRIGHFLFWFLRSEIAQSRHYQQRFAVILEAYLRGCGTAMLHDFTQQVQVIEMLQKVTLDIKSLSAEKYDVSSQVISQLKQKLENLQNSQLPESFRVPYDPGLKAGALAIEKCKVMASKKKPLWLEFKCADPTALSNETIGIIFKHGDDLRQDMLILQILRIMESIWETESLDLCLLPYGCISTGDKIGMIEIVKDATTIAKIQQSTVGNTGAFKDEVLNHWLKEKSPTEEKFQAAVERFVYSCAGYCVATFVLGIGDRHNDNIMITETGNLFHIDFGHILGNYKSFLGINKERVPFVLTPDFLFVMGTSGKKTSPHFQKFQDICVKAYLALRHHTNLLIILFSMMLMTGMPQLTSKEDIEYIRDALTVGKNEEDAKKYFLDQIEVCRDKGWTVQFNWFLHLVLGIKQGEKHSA
# testName: PI 3-Kinase (human) HTRF assay, PI3K γ
# Format: biochemical
# measurementParameters: read-out: PI3K γ IC50
pIC50: −log10 of the molar value.
readoutType: pIC50

>>> print(df.to_string())
                            structurestring   value
0  Cc1c(-c2ccc3oc(N)nc3c2)ccc2ncc(N3CCN[C@@H](C)C3)nc12  < 5.00
1   CC(=O)Nc1cn2cc(-c3ccc4oc(N)nc4c3)ccc2n1  > 7.00
2  Nc1nc2ccc(-c3ccc4ncc(C(=O)N5CCOCC5)n4c3)cc2s1  > 6.00
3  Nc1noc2c(-c3ccc4ncc(C(=O)N5CCOCC5)n4c3)cccc12  < 5.00
4  Nc1nc2cc(-c3ccc4ncc(-c5cnn(CCO)c5)nc4c3)ccc2o1  > 7.00
5  CNC(=O)C1CN(c2cnc3ccc(-c4ccc5oc(N)nc5c4)cc3n2)C1  > 6.00
6  Nc1nc2cc(-c3ccc4ncc(C(=O)N5CCOCC5)n4c3)cc(F)c2o1  > 7.00
7  COc1ncc(-c2ccc3ncc(C(=O)N4CCOCC4)n3c2)cc1NS(C)(=O)=O  > 6.00
8  CS(=O)(=O)Nc1cc(-c2ccc3ncc(C(=O)N4CCOCC4)n3c2)ccc1Cl  < 5.00

---

# testedOn: PI3K β (p110β/p85α) (Homo sapiens)
# Construct: purchased Upstate / Millipore Corporation
# Sequence (P42338 whole entry): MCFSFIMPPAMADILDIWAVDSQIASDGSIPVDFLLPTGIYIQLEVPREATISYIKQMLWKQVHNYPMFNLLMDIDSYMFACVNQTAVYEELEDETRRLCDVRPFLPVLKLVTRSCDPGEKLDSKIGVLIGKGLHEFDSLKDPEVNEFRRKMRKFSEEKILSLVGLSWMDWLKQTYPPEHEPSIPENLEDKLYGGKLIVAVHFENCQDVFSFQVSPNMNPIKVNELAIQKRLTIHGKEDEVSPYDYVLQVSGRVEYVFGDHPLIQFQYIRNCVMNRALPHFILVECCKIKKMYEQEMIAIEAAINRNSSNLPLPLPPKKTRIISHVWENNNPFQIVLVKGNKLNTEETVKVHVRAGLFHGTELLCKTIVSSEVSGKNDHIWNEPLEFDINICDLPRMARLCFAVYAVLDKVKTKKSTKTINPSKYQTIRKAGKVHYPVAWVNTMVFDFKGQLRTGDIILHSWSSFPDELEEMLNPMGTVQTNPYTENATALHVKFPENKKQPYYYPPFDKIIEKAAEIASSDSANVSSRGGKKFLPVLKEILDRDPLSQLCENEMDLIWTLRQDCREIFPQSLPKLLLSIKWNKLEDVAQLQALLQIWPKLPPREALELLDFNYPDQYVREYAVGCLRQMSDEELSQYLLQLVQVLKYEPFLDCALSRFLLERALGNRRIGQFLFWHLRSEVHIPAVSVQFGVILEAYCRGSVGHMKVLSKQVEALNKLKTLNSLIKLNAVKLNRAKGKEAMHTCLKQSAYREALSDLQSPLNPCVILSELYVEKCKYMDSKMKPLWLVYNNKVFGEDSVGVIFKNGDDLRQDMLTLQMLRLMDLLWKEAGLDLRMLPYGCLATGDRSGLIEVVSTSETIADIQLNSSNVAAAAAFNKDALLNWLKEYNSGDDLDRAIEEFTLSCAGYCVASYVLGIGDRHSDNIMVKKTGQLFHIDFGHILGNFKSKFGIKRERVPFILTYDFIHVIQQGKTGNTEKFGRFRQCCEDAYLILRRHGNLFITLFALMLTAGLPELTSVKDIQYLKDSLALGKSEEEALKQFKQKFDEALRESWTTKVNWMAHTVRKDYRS
# Sequence (P27986 whole entry partner): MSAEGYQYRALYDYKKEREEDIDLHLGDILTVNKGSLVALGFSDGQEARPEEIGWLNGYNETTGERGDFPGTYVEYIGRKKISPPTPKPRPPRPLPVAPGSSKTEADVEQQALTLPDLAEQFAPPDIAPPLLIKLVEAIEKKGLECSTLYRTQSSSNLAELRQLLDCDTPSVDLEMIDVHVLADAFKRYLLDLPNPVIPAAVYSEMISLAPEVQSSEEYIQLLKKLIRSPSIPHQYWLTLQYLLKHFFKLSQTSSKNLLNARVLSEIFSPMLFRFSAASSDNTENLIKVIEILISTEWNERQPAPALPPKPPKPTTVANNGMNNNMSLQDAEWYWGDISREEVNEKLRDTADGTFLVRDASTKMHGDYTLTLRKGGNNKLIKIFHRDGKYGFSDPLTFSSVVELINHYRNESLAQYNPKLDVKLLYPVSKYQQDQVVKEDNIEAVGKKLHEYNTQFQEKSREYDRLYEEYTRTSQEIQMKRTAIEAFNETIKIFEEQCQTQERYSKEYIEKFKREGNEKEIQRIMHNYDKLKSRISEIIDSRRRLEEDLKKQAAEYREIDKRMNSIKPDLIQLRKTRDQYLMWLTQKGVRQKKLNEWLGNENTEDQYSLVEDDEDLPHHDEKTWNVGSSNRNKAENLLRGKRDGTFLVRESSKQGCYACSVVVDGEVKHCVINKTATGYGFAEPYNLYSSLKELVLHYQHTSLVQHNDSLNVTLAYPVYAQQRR
# testName: PI 3-Kinase (human) HTRF assay, PI3K β
# Format: biochemical
# measurementParameters: read-out: PI3K β IC50
readoutType: IC50

>>> df
                            structurestring                            testedon  readouttype     value
0  COc1ncc(-c2ccc3ncn(C4CCN(C(C)C)CC4)c(=O)c3c2)cc1NS(=O)(=O)c1ccccc1  PI3K β (p110β/p85α) (Homo sapiens)         IC50  < 0.1 µM
1  Nc1nc2cc(-c3ccc4ncc(N5CC(N6CCNC(=O)C6)C5)nc4c3)ccc2o1  PI3K β (p110β/p85α) (Homo sapiens)         IC50    < 1 µM
2  CN1CCN(c2nc3cc(-c4ccc5oc(N)nc5c4)ccc3c(=O)n2C)CC1  PI3K β (p110β/p85α) (Homo sapiens)         IC50   > 10 µM
3  CC(=O)N1CCC(N(C)c2ncnc3ccc(-c4ccc5oc(N)nc5c4)cc23)CC1  PI3K β (p110β/p85α) (Homo sapiens)         IC50    < 1 µM
4  Nc1nc2cc(-c3ccc4ncc(C(=O)Nc5cccnc5)n4c3)ccc2o1  PI3K β (p110β/p85α) (Homo sapiens)         IC50   > 10 µM
5  CS(=O)(=O)N1CCN(Cc2cc3nc(-c4ccc5oc(N)nc5c4)nc(N4CCOCC4)c3s2)CC1  PI3K β (p110β/p85α) (Homo sapiens)         IC50    < 1 µM
6  CN1CC(C(=O)N2CCC(Nc3ncnc4ccc(-c5ccc6oc(N)nc6c5)cc34)CC2)C1  PI3K β (p110β/p85α) (Homo sapiens)         IC50    < 1 µM
7  Cc1cc(-c2ccc3oc(N)nc3c2)cc2c(-c3ccncc3)cnn12  PI3K β (p110β/p85α) (Homo sapiens)         IC50    < 1 µM

---

Below: a set of entries, each annotated with reported IC50.
# testedOn: PI3K γ (p110γ) (Homo sapiens)
# Construct: purchased Upstate / Millipore Corporation
# testName: PI 3-Kinase (human) HTRF assay, PI3K γ
# Type: biochemical
# measurementParameters: read-out: PI3K γ IC50
readoutType: IC50

In [3]: df
Out[3]:
                                   compound     value
0  Nc1nc2cc(-c3ccc4ncc(C(=O)N5CCC(F)(F)CC5)n4c3)ccc2o1 [Compound 501]   < 10 µM
1  Cc1ncccc1-c1cnc2ccc(-c3ccc4oc(N)nc4c3)cc2n1 [Compound 185]   > 10 µM
2  Nc1nc2ccc(-c3ccc4ncc(N5CCOCC5)nc4c3)cc2o1 [Compound 117]    < 1 µM
3  CS(=O)(=O)N1CCC(Nc2cnc3ccc(-c4ccc5oc(N)nc5c4)cc3n2)CC1 [Compound 95]  < 0.1 µM
4  CC(=O)N1CCC(n2cnc3ccc(-c4ccc5oc(N)nc5c4)cc3c2=O)CC1 [Compound 66]   > 10 µM
5  Nc1nc2cc(-c3ccc4ncc(N5CC(N6CCN(CC7CC7)CC6)C5)nc4c3)ccc2o1 [Compound 335]   > 10 µM
6  O=C(c1cnc2ccc(-c3cncc(NS(=O)(=O)c4ccccc4)c3)cn12)N1CCOCC1 [Compound 424]    < 1 µM
7  Cc1c(-c2ccc3ncc(C(=O)N4CCOCC4)n3c2)ccc2oc(N)nc12 [Compound 369]   > 10 µM

---

Examples of compounds with documented IC50 follow.
# testedOn: PI3K α (p110α/p85α) (Homo sapiens, UniProt P42336)
# Construct: purchased Upstate / Millipore Corporation
# Sequence (P42336 whole entry): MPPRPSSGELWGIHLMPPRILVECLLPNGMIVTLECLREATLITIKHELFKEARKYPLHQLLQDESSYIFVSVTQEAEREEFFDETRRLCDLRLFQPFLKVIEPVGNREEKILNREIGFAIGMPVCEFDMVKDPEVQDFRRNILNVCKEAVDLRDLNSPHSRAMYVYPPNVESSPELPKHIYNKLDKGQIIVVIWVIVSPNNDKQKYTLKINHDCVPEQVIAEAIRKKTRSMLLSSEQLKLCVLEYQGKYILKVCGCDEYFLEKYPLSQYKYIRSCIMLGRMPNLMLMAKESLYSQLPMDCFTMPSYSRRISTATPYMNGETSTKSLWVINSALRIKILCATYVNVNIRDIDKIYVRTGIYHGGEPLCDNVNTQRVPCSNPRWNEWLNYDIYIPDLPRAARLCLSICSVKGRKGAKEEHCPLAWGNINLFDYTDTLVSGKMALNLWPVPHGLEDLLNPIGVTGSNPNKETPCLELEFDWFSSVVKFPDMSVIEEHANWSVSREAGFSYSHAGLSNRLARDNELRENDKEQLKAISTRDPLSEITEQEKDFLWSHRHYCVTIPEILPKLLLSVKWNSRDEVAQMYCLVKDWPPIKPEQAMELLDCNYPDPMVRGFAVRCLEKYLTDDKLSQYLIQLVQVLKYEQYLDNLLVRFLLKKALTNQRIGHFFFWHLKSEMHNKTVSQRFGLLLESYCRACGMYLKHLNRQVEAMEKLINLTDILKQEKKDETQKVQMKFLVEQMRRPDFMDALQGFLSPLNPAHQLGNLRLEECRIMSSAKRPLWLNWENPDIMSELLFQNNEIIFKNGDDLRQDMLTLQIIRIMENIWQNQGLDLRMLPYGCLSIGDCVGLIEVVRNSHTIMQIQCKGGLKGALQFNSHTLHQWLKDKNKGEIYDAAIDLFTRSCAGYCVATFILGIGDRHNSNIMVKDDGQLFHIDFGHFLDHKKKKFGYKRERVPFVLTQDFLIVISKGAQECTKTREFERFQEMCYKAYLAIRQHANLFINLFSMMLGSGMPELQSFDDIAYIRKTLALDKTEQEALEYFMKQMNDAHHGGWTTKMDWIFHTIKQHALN
# Sequence (P27986 whole entry partner): as the sequence (P27986 whole entry partner) above
# testName: PI 3-Kinase (human) HTRF assay, PI3K α
# Assay type: biochemical
# measurementParameters: read-out: PI3K α IC50
readoutType: IC50

>>> df
                             structurestring  readouttype       value
 0  Nc1nc2cc(-c3ccc4ncc(N5CC(n6cccn6)C5)nc4c3)ccc2o1         IC50    < 100 nM
 1  Nc1nc2cc(-c3ccc4ncc(N5CCN(C(=O)C6(N)CC6)CC5)nc4c3)ccc2o1         IC50   < 1000 nM
 2  Nc1nc2cc(-c3nc(N4CCOCC4)c4cnn(C5CCNCC5)c4n3)ccc2o1         IC50   < 1000 nM
 3  Nc1nc2cc(-c3ccc4ncc(N5CCN(C(=O)[C@H](N)CO)CC5)nc4c3)ccc2o1         IC50    < 100 nM
 4  CN(C)C1CCN(c2cnc3ccc(-c4ccc5oc(N)nc5c4)cc3n2)CC1         IC50    < 100 nM
 5  CN1CCN(CCn2cnc3ccc(-c4ccc5oc(N)nc5c4)cc3c2=O)CC1         IC50  < 10000 nM
 6      Nc1nc2cc(-c3ccc4sc(N)nc4c3)cc(F)c2o1         IC50  < 10000 nM
 7  Nc1nc2cc(-c3ccc4ncc(C(=O)N(CCO)CCO)n4c3)ccc2o1         IC50   < 1000 nM
 8  Nc1nc2cc(-c3ccc4ncc(N5CC(N6CCS(=O)(=O)CC6)C5)nc4c3)ccc2o1         IC50    < 100 nM
 9  Cc1cn(C2CN(c3cnc4ccc(-c5ccc6oc(N)nc6c5)cc4n3)C2)cn1         IC50    < 100 nM
10  Nc1nc2cc(-c3ccc4ncc(N5CCN(CC6CC6)CC5=O)nc4c3)ccc2o1         IC50  < 10000 nM
11  Nc1ncnc2ccc(-c3ccc4nccc(-c5ccncc5)c4c3)cc12         IC50  < 10000 nM
12  Cc1c(-c2ccc3oc(N)nc3c2)ccc2ncc(N3CC(N4CCNCC4)C3)nc12         IC50    < 100 nM
13  CC(=O)n1nc(N)c2ccc(-c3ccc4oc(N)nc4c3)cc21         IC50  > 10000 nM
14  Nc1nc2cc(-c3ccc4ncc(N5CCNCC5)nc4c3)ccc2o1         IC50    < 100 nM
15  CN1CCC(N(C)c2ncnc3ccc(-c4ccc5oc(N)nc5c4)cc23)CC1         IC50    < 100 nM
16  Cc1cc(-c2ccc3oc(N)nc3c2)cc2c(C(=O)N3CCCC3)cnn12         IC50    < 100 nM
17  CC(=O)N1CCC(Nc2ncnc3ccc(-c4ccc5oc(N)nc5c4)cc23)CC1         IC50    < 100 nM
18  CC(=O)N1CCC(N(C)c2ncnc3ccc(-c4ccc5oc(N)nc5c4)cc23)CC1         IC50    < 100 nM
19  Nc1nc2cc(-c3ccc4ncc(C(=O)N5CCN(CCO)CC5)n4c3)ccc2o1         IC50    < 100 nM
20  CN1CCN([C@H]2CCN(c3cnc4ccc(-c5ccc6oc(N)nc6c5)cc4n3)C2)CC1         IC50    < 100 nM
21  CN1CCCN(C(=O)c2cnc3ccc(-c4ccc5oc(N)nc5c4)cn23)CC1         IC50   < 1000 nM
22  Cc1nc(NC(=O)N2CCC[C@H]2C(N)=O)sc1-c1ccc2oc(N)nc2c1         IC50   < 1000 nM
23  Nc1nc2cc(-c3ccc4ncnc(NC5CCOCC5)c4c3)ccc2o1         IC50    < 100 nM
24  Nc1nc2cc(-c3ccc4ncc(N5CCOCC5)nc4c3)ccc2s1         IC50    < 100 nM
25  Nc1nc2cc(-c3ccc4ncc(N5CC(n6ccnc6)C5)nc4c3)ccc2o1         IC50    < 100 nM
26  Nc1nc2cc(-c3ccc4ncc(C(=O)N5CCCCC5)n4c3)ccc2o1         IC50   < 1000 nM
27  Nc1nc2cc(-c3ccc4ncc(C(=O)N5CCC(F)CC5)n4c3)ccc2o1         IC50   < 1000 nM
28  CC(C)N1CCC(n2cnc3ccc(-c4ccc5oc(N)nc5c4)cc3c2=O)CC1         IC50    < 100 nM
29  CC(=O)Nc1cc2ccc(-c3cc(F)c4oc(N)nc4c3)cn2n1         IC50  > 10000 nM
30  Nc1nc2cc(-c3cnc4ccc(C(=O)N5CCOCC5)cn34)ccc2o1         IC50  > 10000 nM
31  Nc1nc2cc(-c3ccc4ncn(C(=O)N5CCOCC5)c4c3)ccc2o1         IC50  > 10000 nM
32  Nc1nc2cccc(-c3ccc4nccc(-c5ccncc5)c4c3)c2o1         IC50    < 100 nM
33  NC(=O)[C@H]1CCCN1C(=O)C1CN(c2cnc3ccc(-c4ccc5oc(N)nc5c4)cc3n2)C1         IC50    < 100 nM
34  Nc1nc2cc(-c3ccc4ncc(C(=O)N5CCOCC5)n4c3)cnc2o1         IC50    < 100 nM
